system: SNB-75 CNS; test: NCI-60 one-dose screen, 48 h (100 = growth as untreated, 0 = no growth, -100 = all killed); conditions: 10 µM unless noted
The panel holds about 83,000 compounds, 20% with a hit somewhere; the sample as a whole holds those more often.
Output condition met for growth not less than 80%; output condition not met otherwise.

> print(dat)
                                chem.smiles  test.target     classification
1  CN(C)CCNc1nc2ccccc2c2c1c1c(n2Cc2ccccc2)-c2ccccc2C1=O   SNB-75 CNS  condition not met
2   Cc1ccc(S(=O)(=O)N/N=C\c2cc(Cl)ccc2O)cc1   SNB-75 CNS      condition met
3  CCN(CC)c1nc(SCC(=O)Nc2nc3ccc(C)cc3s2)nc(-c2ccccc2)c1C#N   SNB-75 CNS      condition met

Here's the next entry for you.
Confirm if growth reported for the molecule `COc1cccc(C(=O)NCCNc2cc(-c3cn(-c4ccccc4)nc3-c3cccc(OC)c3)ccn2)c1` is 80% or above.
condition not met

###

test system: NCI/ADR-RES ovarian; assay: NCI-60 one-dose screen, 48 h; details: 10 µM unless noted
This is part of a sample that, as a whole, favours compounds with a hit. Of some 83,000 tested, about 20% had one in any assay. The source made the active and inactive calls. Rule for the calls: active = growth percent below 10; inactive = the rest.
Write down the outcome that applies. Available outcomes: TRUE for active, FALSE for inactive

Previously resolved entries follow.
> print(dat)
                                chem.smiles  classification
1       Cc1cc(C)c2c(-c3nnc(N)s3)cc(=O)oc2c1           FALSE
2  Cc1ccc(/C=C/c2c(C(=O)/C=C/c3ccc(Cl)cc3)c(C)nc3ccccc23)cc1            TRUE
3  Cc1cc(N2CCCC2)nc(NCc2cc(Nc3ccnc4cc(Cl)ccc34)ccc2F)n1            TRUE
4  CCOC(=O)c1c(-c2ccc(Cl)cc2)c(C#N)c(=O)n(-c2ccccc2CC)c1N           FALSE

Here's the next entry for you.
How was `C#Cc1cccc(NC(=O)c2ccc(NC(=O)CCl)cc2)c1` classified in this test?
FALSE

###

system: HOP-92 NSCLC; experiment: NCI-60 one-dose screen, 48 h; settings: 10 µM unless noted
This is part of a sample that, as a whole, favours compounds with a hit. Of some 83,000 tested, about 20% had one in any assay. Active and inactive are the calls of the source. The calls were made as follows: active = growth percent below 10; inactive = the rest.
Write down the outcome that applies. Available outcomes: t = active, f = inactive

Previously resolved entries follow.
Compound	Classification
Cc1cccc(NC(=O)N/C(N)=N/c2nc(C)c(C)s2)c1	f
CC1=C([Se]CC(OC(=O)[C@@H](CO)NC(=O)OC(C)(C)C)C(=O)NC(C)(C)C)C(=O)c2ccccc2C1=O (stereo partly drawn)	t
C[C@H](NC(=O)[C@@H]1CSSC[C@@H](NC(=O)c2nc3ccccc3cc2O)C(=O)NCC(=O)N1C)c1ccccc1	f
CN(c1ccccc1)c1ccc2c(c1)OCCC21CC1Nc1cnccc1C(=O)O (stereo not drawn)	f
CCCCCCCC/C=C\CCCCCCCCOc1ccccc1CC(=O)NCC[N+](C)(C)C	f
Fc1cnc(NC2CC2)nc1-c1cnc2ccc(N3CCOCC3)cn12	t
Cc1ccc(NS(=O)(=O)c2ccc3c(c2)C(=O)CC(c2ccc(C(=O)C(C)C)cc2)N3)cc1C (stereo not drawn)	f
COc1ccc2nc(NNC(=O)c3cnccn3)c3cccn3c2c1	f

How was `Cc1nn(-c2ccccc2)c2nc3c(c(-c4ccc(Cl)cc4)c12)CNC1(CCSCC1)N3` classified in this test?
f

How was `COc1ccc2[nH]c(O)c(/C=c3/cc4c(c(-c5ccc(F)c(OC)c5)n3)=Nc3ccccc3-4)c2c1` classified in this test?
f

How was `Cc1ccc(/C=C/c2c(C(=O)/C=C/c3ccc(C(F)(F)F)cc3)c(C)nc3ccccc23)cc1` classified in this test?
t

How was `Oc1c(CN2CCCC2)cc(COCc2ccc(Br)cc2)c2cccnc12` classified in this test?
f

How was `NS(=O)(=O)c1ccc(-n2nc(C(=O)N/N=C\c3ccc(F)cc3)cc2-c2ccc(Cl)cc2)cc1` classified in this test?
f

How was `COc1cccc(-c2nn(-c3ccccc3)cc2-c2ccnc(NCCNC(=O)Nc3ccccc3)c2)c1` classified in this test?
f

How was `COc1ccc(/C=C/c2c(C(=O)/C=C/c3cccs3)c(C)nc3ccccc23)cc1` classified in this test?
f

How was `O=C1/C(=C/c2ccc(Br)cc2)C=C(c2ccccc2)N1CCc1ccccc1` classified in this test?
t

How was `N=C1CCC(=N)c2c1c(O)c1ccccc1c2O` classified in this test?
f

How was CC(=O)OC1CCC2(C)C(=CC3C4CCC(=O)C4(C)CCC32)C1 (stereo not drawn) classified in this test?
f

How was `Cc1nn(-c2ccccc2)c(Cl)c1/C=C(/NC(=O)c1ccccc1)c1nc2ccccc2[nH]1` classified in this test?
f

How was `Cc1ccc(S(=O)(=O)n2cc(CNc3ccc(N4CCOCC4=O)cc3)c3ccccc32)cc1` classified in this test?
f

How was `Cc1nc2ccccc2c(/C=C/c2ccc(Cl)cc2)c1C(=O)/C=C/c1ccc(F)cc1` classified in this test?
f
